Tested on: U87-EGFRvIII cells
assay_notes: Cytotoxicity of HDACi and DOX in DMSO (MTS assay)
Format: cell-based
particulars: Homo sapiens, drug alone in DMSO, 48 h
reported_property: IC50 (µM)
Answers are plain numbers, in µM.

May I ask what IC50 has been recorded for COc1cccc2c1C(=O)c1c(O)c3c(c(O)c1C2=O)C[C@@](O)(C(=O)CO)C[C@@H]3O[C@H]1C[C@H](N)[C@H](O)[C@H](C)O1 ? 5
